- Test system: NCI-H460 lung
- Method notes: NCI-60 one-dose screen, 48 h (100 = growth as untreated, 0 = no growth, -100 = all killed)
- Assay conditions: 10 µM unless noted
The panel holds about 83,000 compounds, 20% with a hit somewhere; the sample as a whole holds those more often. Calls of active or inactive are those of the source. Rule for the calls: active = growth percent below 10; inactive = the rest.
Readings of growth for the listed compounds

Molecule | growth
COc1ccc(/C=C2\N=C(c3ccccc3)N(C(=O)c3ccccc3O)NC2=O)cc1 | 98.7% (inactive)
Clc1cc(Cl)cc(-c2ccc(-c3ccc(/C=N/NC4=NCCN4)cc3)s2)c1 | 4.5% (active)
C=CCn1c2ccccc2c2c3c(c4c5ccccc5n(CC=C)c4c21)C(=O)N(O)C3=O | 8.86% (active)
NC(=N\N=C/c1ccc(O)cc1)/C(N)=N\N=C/c1ccc(O)cc1 | 35.9% (inactive)

Turning to the following compound.
Provide measured growth value, entry: "Cc1c(C(=N)C(C#N)C#N)c(=N)oc2c1ccc1ccccc12" 97.4% (inactive)

###

Readings of growth for the listed molecules
- Tested on: HCC-2998 colon
- Method notes: NCI-60 one-dose screen, 48 h (100 = growth as untreated, 0 = no growth, -100 = all killed)
- Assay conditions: 10 µM unless noted
This is part of a sample that, as a whole, favours compounds with a hit. Of some 83,000 tested, about 20% had one in any assay. Active and inactive are the calls of the source. The calls were made as follows: active = growth percent below 10; inactive = the rest.

Molecule | Target entity | Endpoint label | Result
COc1cccc(CC(C)=C(c2ccc(OCCN(C)C)cc2)c2ccc(OCCN(C)C)cc2)c1 | HCC-2998 colon | growth | -15.3% (active)
COc1cc(C2C3=C(COC3=O)Nc3cc4c(cc32)OCO4)cc2c1OCO2 (stereo not given) | HCC-2998 colon | growth | 8.39% (active)
O=S1(=O)CCC(N(/N=C/c2ccco2)c2ccccc2)C1 (stereo not given) | HCC-2998 colon | growth | 97.6% (inactive)
O=[N+]([O-])c1ccc(/C=C/C2(CCl)OCCO2)cc1 | HCC-2998 colon | growth | 98.5% (inactive)

Turning to the following molecule.
Provide measured growth value, entry: "COC(=O)c1nc(-c2ccccc2)oc1S(=O)(=O)N1CCN(c2cccc(Cl)c2)CC1" 98.8% (inactive)

###

- Tested on: SW-620 colon
- Method notes: NCI-60 one-dose screen, 48 h (100 = growth as untreated, 0 = no growth, -100 = all killed)
- Assay conditions: 10 µM unless noted
About 83,000 compounds went through this panel and 20% of them were active in at least one assay; those are over-represented in the sample as a whole.
growth vs 20%: at or above is rule met, below is rule not met.

Molecule | Assigned label
O=C(Nc1ccncc1)C(=O)c1cn(S(=O)(=O)c2ccc(Oc3ccccc3)cc2)c2ccccc12 | rule met
C=C[C@@H]1C[C@@H]2Cc3c(C)cc(C)cc3N1O2 | rule met
Cc1cc(N/N=C/c2nc(-c3ccccc3)oc2C)c2cc(Cl)ccc2n1 | rule not met
O=C1c2c(c3c4ccccc4n(CCCCCCBr)c3c3[nH]c4ccccc4c23)C(=O)N1O | rule not met
CC(C)(C)n1cc(-c2ccnc(NCCCNS(=O)(=O)c3ccccc3)c2)c(-c2cccc(O)c2)n1 | rule not met

Please check the record "COc1ccc(/C=C(\C#N)c2cc(OC)c3c(c2)OCO3)cc1" and state if its growth is at or above 20%. rule met

Please check the record "COc1ccc(/C=C\c2cc(OC)c(OC)c(OC)c2)cc1OC(=O)c1cccc(Cn2cc(CCOC(=O)c3cccc(Cn4nnc5c4C(=O)c4ccccc4C5=O)c3)nn2)c1" and state if its growth is at or above 20%. rule met

Please check the record O=C(c1ccccc1)C1OC1c1ccc([N+](=O)[O-])cc1 (centres undefined) and state if its growth is at or above 20%. rule not met

Please check the record "N#Cc1c(-c2ccccc2)cc(-c2ccccc2)n(CC(=O)NO)c1=O" and state if its growth is at or above 20%. rule met

###

- Test system: MDA-MB-231 breast
- Method notes: NCI-60 one-dose screen, 48 h (100 = growth as untreated, 0 = no growth, -100 = all killed)
- Assay conditions: 10 µM unless noted
Compounds without any hit were thinned out: in the full panel of roughly 83,000, 20% have a hit.
Readings of growth for the listed compounds
Entry rule: numbers only, all in %.

A selection of reference data follows.
Compound | Measurement unit | Number
NNc1cccc(/C=C/c2ccccc2)cc1=O | % | 58.1
C=C1CCC2C(C)(CO)C(O)CCC2(C)C1CC(NCc1ccccc1)C1=CCOC1=O (stereo not given) | % | 99.6
O=C(NNC(=O)N1c2ccccc2C=Cc2ccccc21)c1ccc2ccccc2c1 | % | 94.2
O=c1[nH]c(-c2ccccc2)nc(CN2CCCCC2)c1O | % | 102
Cc1ccc(-c2cc3nc(C(Cl)Cl)nc(-c4cccnc4)n3n2)cc1 | % | 2.53
COc1ccc(-c2ccc(C)n2-c2ccc(-c3nc4cc(Cl)ccc4s3)cc2)cc1 | % | 85.8
COc1ccc(CCNC2=CC(=O)CCC2)cc1OC | % | 104
C=C[C@@H]1C[C@@H]2Cc3cc(Cl)ccc3N1O2 | % | 99.3

Provide measured growth value, entry: CCN(CC)CCC(CNc1ccnc2cc(Cl)ccc12)c1ccccc1 (stereo not given) 43

Provide measured growth value, entry: "Cc1nc2cncc(C#Cc3cncc(C(=O)Nc4ccc(CN5CCN(C)CC5)c(C(F)(F)F)c4)c3)c2nc1C" -49.4

Provide measured growth value, entry: "Cc1ccc(S(=O)(=O)c2nc(-c3ccccc3)oc2S(C)(=O)=O)cc1" 13.6

Provide measured growth value, entry: "C=C1C(=O)O[C@H]2[C@H]1CC/C(Cn1cc(CNC(=O)Cc3cn(C(=O)c4ccc(Cl)cc4)c4ccc(OC)cc34)nn1)=C\CC[C@@]1(C)O[C@@H]21" -24.1

Provide measured growth value, entry: "Cc1cc(N)n(S(=O)(=O)c2oc(-c3ccccc3)nc2C#N)n1" 94.1

Provide measured growth value, entry: "O=C(CSc1nc2ccccc2[nH]1)Nc1ccc(-c2nc3ccccc3s2)c(Cl)c1" -36.8

Provide measured growth value, entry: "CN(C)CCOC(=O)Nc1ccccc1Cl" 107

Provide measured growth value, entry: "C=C(C)[C@@H]1CC[C@]2(C(=O)N3CCNCC3)CC[C@]3(C)[C@H](CC[C@@H]4[C@@]5(C)C/C(=C/c6ccncc6)C(=O)C(C)(C)[C@@H]5CC[C@]43C)[C@@H]12" 116

Provide measured growth value, entry: "C=C[C@@H]1C[C@H](O)Cc2cc(F)ccc2N1" 96.1

Provide measured growth value, entry: "Cn1cc(-c2cnc3ccc(NC(=O)Nc4ccc(F)c(Br)c4)cc3n2)cn1" 23.4

Provide measured growth value, entry: "COc1ccc2[nH]c(=O)c(/C=N/Nc3nc(-c4ccccc4)cs3)c(O)c2c1" 57.5

Provide measured growth value, entry: "C=C1C(=O)O[C@H]2[C@H]1CC/C(Cn1cc(CNC(=O)/C=C/c3c[nH]c4ccccc34)nn1)=C\CC[C@@]1(C)O[C@@H]21" 99.7

###

- System: HCT-116 colon
- Method notes: NCI-60 one-dose screen, 48 h
- Assay conditions: 10 µM unless noted
Compounds without any hit were thinned out: in the full panel of roughly 83,000, 20% have a hit. Active and inactive are the calls of the source. Rule for the calls: active = growth percent below 10; inactive = the rest.
Give one outcome, nothing more. List: 1 = active, 0 = inactive

Check out these entries, answers already filled in.
Molecule | Target entity | Assigned label
CC1(c2ccc(Cl)cc2)OC(=O)CC(=O)O1 | HCT-116 colon | 0
CCCCCCCCCCCCCCCCNC(=O)OC(C)C | HCT-116 colon | 0
O=C(O)c1cn(C2CC2)c2cc(N3CCN(C(=O)/C=C/c4ccc(Cl)cc4)CC3)c(F)cc2c1=O | HCT-116 colon | 0
CCOC(=O)CC(=O)OC | HCT-116 colon | 0
COc1cc(Nc2nc(N[C@H]3CCCC[C@@H]3N)nc3cc[nH]c(=O)c23)cc(OC)c1 | HCT-116 colon | 1

Answer briefly: the call reported for "C=C[C@@H]1C[C@H](O)Cc2ccccc2N1" in this assay. 0

Answer briefly: the call reported for "N=C(N)c1ccc(-c2ccc(-c3ccc4ccccc4c3)s2)cc1" in this assay. 0

Answer briefly: the call reported for "S=c1[nH]nc(-c2cc3ccc2CCc2ccc(cc2)CC3)n1-c1ccccc1" in this assay. 0

Answer briefly: the call reported for "Cc1nn(-c2ccc([N+](=O)[O-])cc2)c2ncnc(NCCc3ccccc3)c12" in this assay. 0

Answer briefly: the call reported for CC(C)CC1NC(C)(C)CO1 (stereo unspecified) in this assay. 0

Answer briefly: the call reported for "COc1ccc(Nc2nn3c(-c4ccccc4)cc(-c4ccccc4)nc3c2C(N)=O)c(OC)c1" in this assay. 0

###

- System: T-47D breast
- Method notes: NCI-60 one-dose screen, 48 h (100 = growth as untreated, 0 = no growth, -100 = all killed)
- Assay conditions: 10 µM unless noted
This is part of a sample that, as a whole, favours compounds with a hit. Of some 83,000 tested, about 20% had one in any assay.
Binarize growth at 80%; below is yes (1), at or above is no (0).

Check out these entries, answers already filled in.
Compound | Assigned label
CN(C)c1cccc2c(S(=O)(=O)/N=C(\N)Nc3nc4ccccc4s3)cccc12 | yes (1)
C=C1CCC2C(C)(CO)C(O)CCC2(C)C1CC(NCc1ccccc1)C1=CCOC1=O (stereo not given) | no (0)
NC(=S)N/N=C(/CCN1CCCC1)CC(C1=C(O)C2=CCCCC2OC1=O)c1ccccc1 (stereo not given) | yes (1)

Now look at this one.
Does "Fc1ccccc1-c1nc(-c2nc3cc(Cl)c(Cl)cc3[nH]2)c2ccccn12" have growth strictly under 80%? yes (1)
